test: Continuous real-time MEDIC measurement of in vivo DOX concentration in live rats; conditions: male, Sprague-Dawley, rat, 1 mg·m^−2, alpha-phase half-life t1/2^α, first of two injections of 1 mg·m^−2
observation type: half-life
Please append the unit to your numeric answer.

Entry COc1cccc2c1C(=O)c1c(O)c3c(c(O)c1C2=O)C[C@@](O)(C(=O)CO)C[C@@H]3O[C@H]1C[C@H](N)[C@H](O)[C@H](C)O1 [DOX, doxorubicin] : reported half-life = ?
10.7 min
